Recorded values, source patent US20240150396A1.

System: T. cruzi (Ca-I/72) in C2C12 murine cardiomyoblasts
Experiment: T. cruzi-infected murine cardiomyoblasts (C2C12)
Format: cell-based, Trypanosoma cruzi
Details: C2C12 murine cardiomyoblasts; listed as K777; read-out: EC50 T. cruzi-infected cardiomyoblasts
Method: For the evaluation of the antitrypanocidal activity of cruzain inhibitors, we infected a C2C12 mouse cardiomyoblast cell line (ATCC CRL-1772) with T. cruzi strain Ca-I/72 (a gift from James Dvorak, National Institutes of Health) in 1536-microwell plates. […] T. cruzi infection was evaluated in C2C12 murine cardiomyoblast cells. […] After >30 min of incubation in a dark environment, the plates were read on an ImageXpress MicroXL microscope (Molecular Devices). […]
MEASURED ATTRIBUTE: pEC50
Scale for pEC50: -log10 of concentration given in mol/L; no unit attached.

In: What does the data say about its pEC50? Entry: CN1CCN(C(=O)N[C@@H](Cc2ccccc2)C(=O)N[C@H](/C=C/S(=O)(=O)c2ccccc2)CCc2ccccc2)CC1 [Compound K11777, reference compound]
Out: 7.42
